# Tested on: NCI-H1703 (Squamous Cell Lung Carcinoma);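 also: after 72 h of two-drug dosing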
# experimental details: Bliss excess, mean over the matrix (fraction); higher = more synergy
readout label: Bliss excess
One number for each entry.

{"compound": "CN(CCO)CC[C@H](CSc1ccccc1)Nc1ccc(S(=O)(=O)NC(=O)c2ccc(N3CCC([C@@H](O)c4ccccc4-c4ccc(Cl)cc4)CC3)cc2)cc1S(=O)(=O)C(F)(F)F [AZD4320] + CN(C)CCCOc1ccc(-c2ccc3ncc4c(c3c2)n(C2CCOCC2)c(=O)n4C)cn1 [AZD0156] (first compound max 1 µM, 7x7, partner max 1 µM)", "Bliss excess": -0.0127}
{"compound": "NC1(C(=O)N[C@@H](CCO)c2ccc(Cl)cc2)CCN(c2ncnc3[nH]ccc23)CC1 [Capivasertib] + CCN(CCO)CCCOc1ccc2c(Nc3cc(CC(=O)Nc4cccc(F)c4)[nH]n3)ncnc2c1 [AZD2811] (first compound max 10 µM, 7x7, partner max 1 µM)", "Bliss excess": -0.0237}
{"compound": "Cc1cc2ncnn2cc1Nc1ncc2c(n1)n(C1CCOCC1)c(=O)n2C [AZD7648] + O=C(c1cc(Cc2n[nH]c(=O)c3ccccc23)ccc1F)N1CCN(C(=O)C2CC2)CC1 [Olaparib] (first compound max 10 µM, 7x7, partner max 10 µM)", "Bliss excess": -0.0307}

I'm hoping you can list Bliss excess for every compound here, please.
1. CN(CCO)CC[C@H](CSc1ccccc1)Nc1ccc(S(=O)(=O)NC(=O)c2ccc(N3CCC([C@@H](O)c4ccccc4-c4ccc(Cl)cc4)CC3)cc2)cc1S(=O)(=O)C(F)(F)F [AZD4320] + C=CCn1c(=O)c2cnc(Nc3ccc(N4CCN(C)CC4)cc3)nc2n1-c1cccc(C(C)(C)O)n1 [AZD1775] (first compound max 1 µM, partner max 1 µM)
2. NC1(C(=O)N[C@@H](CCO)c2ccc(Cl)cc2)CCN(c2ncnc3[nH]ccc23)CC1 [Capivasertib] + Cn1cnc2c(F)c(Nc3ccc(Br)cc3Cl)c(C(=O)NOCCO)cc21 [Selumetinib] (first compound max 10 µM, 7x7, partner max 10 µM)
3. COc1cc2ncnc(Nc3ccc(F)c(Cl)c3)c2cc1OCCCN1CCOCC1 [Gefitinib] + CC(C)n1c(=O)n(C)c2cnc3cc(F)c(-c4ccc(OCCCN5CCCCC5)nc4)cc3c21 [AZD1390] (first compound max 10 µM, 7x7, partner max 0.3 µM)
4. CCN(CCO)CCCOc1ccc2c(Nc3cc(CC(=O)Nc4cccc(F)c4)[nH]n3)ncnc2c1 [AZD2811] + O=C(c1cc(Cc2n[nH]c(=O)c3ccccc23)ccc1F)N1CCN(C(=O)C2CC2)CC1 [Olaparib] (first compound max 1 µM, 7x7, partner max 10 µM)
5. C[C@@H]1COCCN1c1cc(C2([S@](C)(=N)=O)CC2)nc(-c2ccnc3[nH]ccc23)n1 [AZD6738] + Nc1ccn([C@@H]2O[C@H](CO)[C@@H](O)C2(F)F)c(=O)n1 [Gemcitabine] (first compound max 10 µM, 7x7, partner max 0.3 µM)
6. COc1nnc2ccc(N3CCC(c4ccc(OCCN5CCN(C)C(=O)[C@H]5C)cc4)CC3)nn12 [AZD5153] + Cn1cnc2c(F)c(Nc3ccc(Br)cc3Cl)c(C(=O)NOCCO)cc21 [Selumetinib] (first compound max 1 µM, 7x7, partner max 10 µM)

Result:
1: 0.0572; 2: 0.0358; 3: 0.0012; 4: 0.0062; 5: -0.006; 6: -0.0065

I'm hoping you can list Bliss excess for every compound here, please.
1. CN(CCO)CC[C@H](CSc1ccccc1)Nc1ccc(S(=O)(=O)NC(=O)c2ccc(N3CCC([C@@H](O)c4ccccc4-c4ccc(Cl)cc4)CC3)cc2)cc1S(=O)(=O)C(F)(F)F [AZD4320] + CC(=O)O[C@H]1C(=O)[C@@]2(C)[C@H]([C@H](OC(=O)c3ccccc3)[C@]3(O)C[C@H](OC(=O)[C@H](O)[C@@H](NC(=O)c4ccccc4)c4ccccc4)C(C)=C1C3(C)C)[C@]1(OC(C)=O)CO[C@@H]1C[C@@H]2O [Paclitaxel] (first compound max 1 µM, 7x7, partner max 3 µM)
2. Cc1c2c(nn1C)CSCc1cc(n(C)n1)CSc1cc(c3ccccc3c1)OCCCc1c(C(=O)O)n(C)c3c-2c(Cl)ccc13 [AZD5991] + CC(=O)O[C@H]1C(=O)[C@@]2(C)[C@H]([C@H](OC(=O)c3ccccc3)[C@]3(O)C[C@H](OC(=O)[C@H](O)[C@@H](NC(=O)c4ccccc4)c4ccccc4)C(C)=C1C3(C)C)[C@]1(OC(C)=O)CO[C@@H]1C[C@@H]2O [Paclitaxel] (first compound max 1 µM, 7x7, partner max 3 µM)
3. C=CCn1c(=O)c2cnc(Nc3ccc(N4CCN(C)CC4)cc3)nc2n1-c1cccc(C(C)(C)O)n1 [AZD1775] + C1CN(CCC1(C(=O)N[C@@H](CCO)C2=CC=C(C=C2)Cl)N)C3=NC=NC4=C3C=CN4 [Capivasertib] (first compound max 3 µM, partner max 3 µM)
4. NC1(C(=O)N[C@@H](CCO)c2ccc(Cl)cc2)CCN(c2ncnc3[nH]ccc23)CC1 [Capivasertib] + COc1nnc2ccc(N3CCC(c4ccc(OCCN5CCN(C)C(=O)[C@H]5C)cc4)CC3)nn12 [AZD5153] (first compound max 10 µM, 7x7, partner max 1 µM)

Result:
1: -0.0223; 2: -0.0136; 3: 0.0131; 4: 0.0357

Entry source: the supplement of paper PMC11061612
